organism: Rattus norvegicus; test: Tissue biodistribution into estrogen-primed immature female rat uterus at 1 hr time interval; type: ADME, organism-based; conditions: in vivo
Measured Injected dose/g, listed per entry for reference.
Express the result in % but write the number alone.

Worked cases, answers included:
In [3]: df
Out[3]:
                                   compound  result_value
0  CC1(c2ccco2)O[C@@H]2CC3C4CCC5=CC(=O)CC[C@@H]5C4CC[C@]3(C)[C@]2(C(=O)CF)O1 (stereo not given in full)          6.51
1  CC(=O)[C@@]12O[C@](C)(c3ccc(F)cc3)O[C@@H]1CC1C3CCC4=CC(=O)CC[C@]4(C)C3CC[C@@]12C (stereo not given in full)          3.08
2  C[C@@]1(c2ccc(F)cc2)O[C@@H]2CC3C4CCC5=CC(=O)CC[C@@H]5C4CC[C@]3(C)[C@]2(C(=O)CO)O1 (stereo not given in full)          3.65
3  CC[C@@H]1C[C@H]2[C@@H]3CCC4=CC(=O)CC[C@@H]4[C@H]3CC[C@]2(C)[C@H]1C(=O)CF          6.43

Next, consider the following compound.
Which Injected dose/g value belongs to C[C@]12CCC3C(CCC4=CC(=O)CC[C@@H]43)C1C[C@H]1OC(c3ccco3)O[C@]12C(=O)CF (stereo not given in full) ? 6.8

---

assay: Partition coefficient (logP); type: physicochemical; details: octanol/water
Mark met for logP under 4, not met if at or over.

Sample answers from the record:
                                   compound  discrete_label
0  C[C@]12CCC3C(CCC4=CC(=O)CC[C@@H]43)C1C[C@H]1OC(c3ccco3)O[C@]12C(=O)CO (stereo not given in full)             met
1  CC(=O)[C@@]12OC(C)(c3ccco3)O[C@@H]1CC1C3CCC4=CC(=O)CC[C@]4(C)C3CC[C@@]12C (stereo not given in full)         not met

Now turn to the next compound.
Given CC(=O)[C@@]12OC(c3ccco3)O[C@@H]1CC1C3CCC4=CC(=O)CC[C@]4(C)C3CC[C@@]12C (stereo not given in full) , is recorded logP strictly lower than 4? not met

---

species: Rattus norvegicus; assay: Tissue biodistribution into estrogen-primed immature female rat lung at 1 hr time interval; type: ADME, organism-based; conditions: in vivo
Classify: true when Injected dose/g is strictly less than 0.6%; false when Injected dose/g is not.

Look over these answered cases.
In [3]: df
Out[3]:
                                   compound  discrete_label
0  CC(=O)[C@@]12O[C@](C)(c3ccc(F)cc3)O[C@@H]1CC1C3CCC4=CC(=O)CC[C@]4(C)C3CC[C@@]12C (stereo not given in full)           false
1  CC1(c2ccco2)O[C@@H]2CC3C4CCC5=CC(=O)CC[C@@H]5C4CC[C@]3(C)[C@]2(C(=O)CF)O1 (stereo not given in full)           false
2  CC[C@@H]1C[C@H]2[C@@H]3CCC4=CC(=O)CC[C@@H]4[C@H]3CC[C@]2(C)[C@H]1C(=O)CF            true

Next:
Report whether reported Injected dose/g is lower than 0.6% (strictly) for C[C@]12CCC3C(CCC4=CC(=O)CC[C@@H]43)C1C[C@H]1OC(c3ccco3)O[C@]12C(=O)CF (stereo not given in full) false

---

organism: Rattus norvegicus; assay: Tissue biodistribution into estrogen-primed immature female rat liver at 1 hr time interval; type: ADME, organism-based; conditions: in vivo
The threshold is inclusive: Injected dose/g of exactly 3% counts as Criterion met; values below receive Criterion not met.

Is it the case that CC(=O)[C@@]12O[C@](C)(c3ccc(F)cc3)O[C@@H]1CC1C3CCC4=CC(=O)CC[C@]4(C)C3CC[C@@]12C (stereo not given in full) has Injected dose/g reaching or exceeding 3%? Criterion met

---

Form field: Injected dose/g (one value per entry).
species: Rattus norvegicus; assay: Tissue biodistribution into estrogen-primed immature female rat liver at 1 hr time interval; assay type: ADME, organism-based; conditions: in vivo
Only the number, expressed in %, is required.

In [3]: df
Out[3]:
                                   molecule  property_measured  result_value
0  CC1(c2ccco2)O[C@@H]2CC3C4CCC5=CC(=O)CC[C@@H]5C4CC[C@]3(C)[C@]2(C(=O)CF)O1 (some centres undefined)    Injected dose/g          1.26
1  C[C@]12CCC3C(CCC4=CC(=O)CC[C@@H]43)C1C[C@H]1OC(c3ccco3)O[C@]12C(=O)CF (some centres undefined)    Injected dose/g           2.4

Looking for the measured Injected dose/g of C[C@@]1(c2ccc(F)cc2)O[C@@H]2CC3C4CCC5=CC(=O)CC[C@@H]5C4CC[C@]3(C)[C@]2(C(=O)CO)O1 (some centres undefined) , can you help? 4.25

Would you mind telling me what Injected dose/g value was observed for `CC[C@@H]1C[C@H]2[C@@H]3CCC4=CC(=O)CC[C@@H]4[C@H]3CC[C@]2(C)[C@H]1C(=O)CF` ? 3.34
